Molecular target: T1, Human CD3eg linker (human)
T1 construct: Single-chain construct; also called recombinant human CD3
T1 chain: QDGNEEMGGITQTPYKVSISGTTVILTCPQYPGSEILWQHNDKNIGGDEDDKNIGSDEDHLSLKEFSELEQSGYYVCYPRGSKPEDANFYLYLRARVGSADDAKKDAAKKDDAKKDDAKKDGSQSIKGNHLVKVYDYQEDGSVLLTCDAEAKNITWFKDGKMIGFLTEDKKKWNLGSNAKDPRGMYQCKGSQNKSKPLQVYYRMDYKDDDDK
Test: SPR; fold vs parent H183/L072
Measure: fold change of affinity (fold)

>>> endpoint_value("H183/L072 VL F96E (antibody, name in Kabat numbering, V domains shown) VH: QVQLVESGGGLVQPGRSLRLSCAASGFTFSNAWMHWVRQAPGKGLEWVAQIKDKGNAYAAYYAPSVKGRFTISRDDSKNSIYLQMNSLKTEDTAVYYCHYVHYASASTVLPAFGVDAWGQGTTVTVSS VL: DIVMTQSPLSLPVTPGEPASISCQASQELVHMNRNTYLHWYQQKPGQAPRLLIYKVSNRFPGVPDRFSGSGSGTDFTLKISRVEAEDVGVYYCAQGTSVPETFGQGTKLEIK")
0
>>> endpoint_value("H183/L072 VL H34T (antibody, name in Kabat numbering, V domains shown) VH: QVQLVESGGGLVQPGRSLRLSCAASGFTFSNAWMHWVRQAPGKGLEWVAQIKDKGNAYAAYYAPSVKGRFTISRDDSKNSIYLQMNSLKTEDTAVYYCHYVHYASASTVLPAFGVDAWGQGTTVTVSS VL: DIVMTQSPLSLPVTPGEPASISCQASQELVHMNRNTYLTWYQQKPGQAPRLLIYKVSNRFPGVPDRFSGSGSGTDFTLKISRVEAEDVGVYYCAQGTSVPFTFGQGTKLEIK")
0.4
>>> endpoint_value("H183/L072 VL Y32T (antibody, name in Kabat numbering, V domains shown) VH: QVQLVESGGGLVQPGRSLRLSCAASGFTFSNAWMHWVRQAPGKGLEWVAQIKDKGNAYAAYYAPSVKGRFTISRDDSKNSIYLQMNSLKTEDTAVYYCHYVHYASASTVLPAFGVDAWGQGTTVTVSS VL: DIVMTQSPLSLPVTPGEPASISCQASQELVHMNRNTTLHWYQQKPGQAPRLLIYKVSNRFPGVPDRFSGSGSGTDFTLKISRVEAEDVGVYYCAQGTSVPFTFGQGTKLEIK")
0
